- System: CCRF-CEM leukemia
- assay: NCI tumour cell line growth inhibition, 48 h
Known TGI of a selection of molecules

# count of solved cases: 5
# molecule, targetDesc, TGI
data = [
    ("C/C=C/C=C/CCCCCCCCCCCCCC1(OC)C=CC(CC(=O)OC)OO1 (stereo unspecified)", "CCRF-CEM leukemia", "5.8 µM"),
    ("Cc1n[nH]c(=O)n1/N=C\\CC/C=N\\n1c(C)n[nH]c1=O", "CCRF-CEM leukemia", "> 100 µM"),
    ("CCCOc1nc(SCCC)nc2c1cnn2-c1ccccc1", "CCRF-CEM leukemia", "> 100 µM"),
    ("COc1cc(/C=C/C(=O)c2sc(NNC(C)=O)nc2C)ccc1O", "CCRF-CEM leukemia", "> 100 µM"),
    ("CC(C)CC(NC(=O)C(CCI)Cc1ccccc1)C(=O)Nc1ccccc1 (stereo unspecified)", "CCRF-CEM leukemia", "> 100 µM"),
]

Ask: Given the molecule `CC(=O)N1N(c2ccc([N+](=O)[O-])cc2)C(=O)C1(C)C` , what is its reported TGI?
Result: 33.3 µM

Ask: Can you share its TGI? I mean this molecule: CCC1CCc2c(OC)ccc(OCC(=O)O)c2C1=O (stereo unspecified)
Result: > 100 µM

====

- Tested on: HL-60(TB) leukemia
- assay: NCI tumour cell line growth inhibition, 48 h
reportedMetric: TGI (µM)
Give the number; µM is assumed, so skip it.

# compound, TGI / µM
rows = [
    ("Cc1[nH]c2ccccc2c1CCNCc1ccc(/C=C/C(=O)NO)cc1", 3.16),
    ("c1ccc2cc(CNCCOCCOCCNCc3ccc4ccccc4c3)ccc2c1", 4.07),
    ("CN(CCCN(C)CCc1ccc(Cl)c(Cl)c1)CCCN1CCCC1", 4.12),
]

Ask: # value lookup — system HL-60(TB) leukemia, readout TGI, item `CCN(CC)C(=S)N=Nc1c(O)[nH]c2ccccc12`
Result: 3.7

Ask: For HL-60(TB) leukemia, provide TGI of `O=C1/C(=C/c2c(Cl)[nH]c3ccccc23)c2ccccc2N1c1ccccc1` please.
Result: 13.9

Ask: // map `COc1cccc2c1C(=O)c1ccc3cc(CCl)cc(O)c3c1C2=O` to recorded TGI (system: HL-60(TB) leukemia)
Result: 0.551

Ask: Reported TGI for HL-60(TB) leukemia, given `Cn1ccnc1C(=O)/C=C/c1ccc(CC(=O)Nc2ccc(C(F)(F)F)cc2)cc1` ?
Result: 9.82

Ask: Please state recorded TGI (tested on HL-60(TB) leukemia) of CCOc1ccc(NCC2CC/C(=C\c3ccc(O)cc3)C2=O)cc1 (centres undefined)
Result: 5.33

Ask: Query for HL-60(TB) leukemia: what TGI does the record show for `C[C@]12CCc3sc(Nc4ccc(O)cc4)nc3C1=CC[C@@H]1[C@@H]2CC[C@]2(C)C(=O)CC[C@@H]12` ?
Result: 7.27

Ask: Notebook entry, HL-60(TB) leukemia assay: TGI of `CCC(/C=C/c1ccccc1)=N\Nc1ccc(Cl)c(Cl)c1` = ?
Result: 72.5

====

- Test system: NCI/ADR-RES ovarian
- assay: NCI tumour cell line growth inhibition, 48 h
reportedMetric: TGI

# compoundSmiles, TGI
rows = [
    ("CC(C)N1C(NNC(=O)c2cnccn2)=NS(=O)(=O)c2ccccc21", "> 100 µM"),
    ("COCCNc1cc(NC(=O)N2CCCc3cc(CN4CCN(C)CC4=O)c(C=O)nc32)ncc1C#N", "> 50 µM"),
    ("CC(C)(C)OC(=O)N(CCNS(=O)(=O)c1cccc2cnccc12)CCC(=O)ON1C(=O)CCC1=O", "> 100 µM"),
]

Ask: Could you tell me which TGI is on file for `CC(C)C[C@H](NC(=O)[C@@H](O)[C@H](N)Cc1ccc([N+](=O)[O-])cc1)C(=O)O` ?
Result: > 25 µM

Ask: Given the entry `NC(CCC(=O)O)(CCC(=O)O)CCC(=O)O` , report its measured TGI.
Result: > 100 µM

Ask: State the recorded TGI for this entry: `O=C(c1cccnc1)c1cc(-c2ccccn2)c(=O)n2ccccc12`
Result: > 100 µM

====

- System: U251 CNS
- assay: NCI tumour cell line growth inhibition, 48 h
In this section we review reported TGI values for a set of compounds.

Ask: Tell me the measured TGI of `CC(=O)O[C@H]1CCn2c3c(c(C)c21)C(=O)C(N1CC1)=C(C)C3=O` , please.
Result: > 10 µM

Ask: What TGI value was documented for this compound, `O=C(NCCc1ccccc1)c1c(O)c2ccccc2[nH]c1=O` ?
Result: > 100 µM

Ask: Any idea what its TGI is? The compound is O=C1NC2C=CN(Cc3ccccc3)C=C2C(=O)N2CCCC12 (stereo not given)
Result: > 100 µM

Ask: Which value of TGI has been reported for Nc1ncnc2c1cnn2Cc1cn(COCC(O)CO)nn1 (stereo not given) in the records?
Result: > 100 µM

Ask: Fill in the blank: the reported TGI of CC(C)C/C=C/C1=NN(c2cccc(S(=O)(=O)O)c2)C2(C1)SCC(=O)N2c1nc2ccccc2s1 (stereo not given) is ____.
Result: > 100 µM

====

- Test system: SF-295 CNS
- assay: NCI tumour cell line growth inhibition, 48 h; in the data active = GI50 below about 0.43 µM; inactive = the rest
Classes to choose from: Y = active, N = inactive

Here are 4 compounds together with their reported answers.
# compound, cat
data = [
    ("CCN(CC)c1ccc(C(=N)c2ccc(N(C)C)cc2)cc1", "Y"),
    ("CC(=O)O[C@H]1CC[C@@]2(C)[C@@H](CC[C@@H]3[C@@H]2CC[C@]2(C)C=C(C=O)C[C@@H]32)C1", "N"),
    ("Cc1cn2c(/C=N/Nc3ccccn3)c(-c3ccc(Cl)c([N+](=O)[O-])c3)nc2s1", "N"),
    ("CC(C)c1ccc(Nc2nccc(-c3cnn4ncccc34)n2)cc1", "N"),
]

Ask: // param item: `Nc1c(C(=O)Nc2ccccc2)sc2nc3c(cc12)CN(Cc1ccccc1)CC3` ; yields the recorded call
Result: N

Ask: What did this assay record as the result for `CSc1ccccc1C#Cc1ccccc1C#CCCCCO` ?
Result: N

Ask: Tell me the recorded outcome of this test for CCCCN(CCCC)c1ccc(C(=NC(C)CCCN(CC)CC)c2ccc(N(C)C)cc2)cc1 (centres undefined) .
Result: N

Ask: Assay outcome for CN(C)CC1CCCCCC(CN(C)C)C1=O (centres undefined) : what was it?
Result: N

Ask: Returns: the outcome recorded for `CC1(C)CC[C@]2(C(=O)N3CCOCC3)CC[C@]3(C)C(=CC[C@@H]4[C@@]5(C)C/C(=C/c6ccncc6)C(=O)C(C)(C)[C@@H]5CC[C@]43C)[C@@H]2C1` in this assay.
Result: N

====

- Test system: 786-0 renal
- assay: NCI tumour cell line growth inhibition, 48 h
reportedMetric: TGI (µM)
Respond numerically; units are µM and should not be typed.

Ask: # lookup: TGI of `c1ccc(C2OCCO2)c(OCCOc2cc(OCCOc3ccccc3C3OCCO3)c(OCCOc3ccccc3C3OCCO3)cc2OCCOc2ccccc2C2OCCO2)c1`
Result: 17.3

====

- System: EKVX NSCLC
- assay: NCI tumour cell line growth inhibition, 48 h
reportedMetric: TGI

# compound, reportedMetric, result
data = [
    ("CCOc1ncn(-c2ccc(NC(=S)NC34CC5CC(CC(C5)C3)C4)cc2)n1", "TGI", "> 100 µM"),
    ("CCc1nnc(-c2nsc3ccccc23)s1", "TGI", "> 100 µM"),
]

Ask: Entry under review: COc1cc(C2CC(c3ccc(N(C)C)cc3)=NN2C(C)=O)cc(OC)c1OC (stereo not given) . Reported TGI?
Result: > 100 µM

Ask: Request the reported TGI associated with `CCOc1cc2c(cc1O)/C(=N/NS(=O)(=O)c1ccc(C)cc1)C[C@@H]1[C@@H]2CC[C@]2(C)[C@@H](O)CC[C@@H]12`
Result: > 100 µM

Ask: Report TGI for `Cc1n[nH]c(=O)n1/N=C\CC/C=N\n1c(C)n[nH]c1=O` please.
Result: > 100 µM

====

- Tested on: ACHN renal
- assay: NCI tumour cell line growth inhibition, 48 h
Attribute: TGI

# compoundSmiles, TGI
measured = [
    ("O=c1c2cn[nH]c2nc2scc(-c3ccc(Cl)cc3)n12", "> 100 µM"),
]

Ask: Could you share which TGI value was measured for `FC(F)(F)c1ccc(-c2cnc(Cl)nc2NCc2cc(C(F)(F)F)cc(C(F)(F)F)c2)cc1` ?
Result: > 100 µM

Ask: Return reported TGI; argument: `COC(=O)c1cc(-c2cccn2C)c2c(c1C(=O)OC)c1ccccc1n2C`
Result: > 100 µM

# credit: PubChem BioAssay (NCI)
